Origin of the recorded values: ChEMBL document CHEMBL2331180

- test: Antiproliferative activity against human […] cells assessed as inhibitory activity measured after 36 hrs by [3H]thymidine incorporation assay
- Type: functional
- condition_info: read-out: ID50 (the source's name)
For each of the molecules below, state its IC50.

Exercise: Endpoint output: IC50 of CCCCCCCCCCCCCCCCO[C@H]1O[C@H](COCC(O)CO)[C@@H](O)[C@H](O)[C@H]1NC(=O)CCCC (some centres undefined) . Value?
Solution: 4.6 µM

Exercise: Endpoint output: IC50 of `CCCCCCCCCCCCCCCCO[C@H]1O[C@H](CO)[C@@H](O)[C@H](O)[C@H]1NC(C)=O` . Value?
Solution: 13 µM

Exercise: Endpoint output: IC50 of `CCCCCCCCCCCCCCCCO[C@H]1O[C@H](COCC(CO)(CO)COS(=O)(=O)O)[C@@H](O)[C@H](O)[C@H]1NC(=O)CCCC` . Value?
Solution: 3.2 µM

Exercise: Endpoint output: IC50 of `CCCCCCCCO[C@H]1O[C@H](COCC(CO)(CO)CO)[C@@H](O)[C@H](O)[C@H]1NC(C)=O` . Value?
Solution: 180 µM
